Hello, the source for this data is PubChem BioAssay (NCI), in case you need it.

# System: SF-295 CNS
# test.method.notes: NCI-60 one-dose screen, 48 h (100 = growth as untreated, 0 = no growth, -100 = all killed)
# experimental.context: 10 µM unless noted
This is part of a sample that, as a whole, favours compounds with a hit. Of some 83,000 tested, about 20% had one in any assay.
Quick rule for you: growth under 80% gets t, anything else gets f.

[
  {
    "molecule": "O=C(Cn1nnc2ccccc21)Nc1ccc(-c2nc3ccccc3s2)cc1",
    "system.under.test": "SF-295 CNS",
    "class.label": "f"
  },
  {
    "molecule": "Cc1ccc(C(=O)c2ccc(CC(=O)N/N=C/c3ccc(O)cc3O)n2C)cc1",
    "system.under.test": "SF-295 CNS",
    "class.label": "t"
  },
  {
    "molecule": "Cn1ccnc1C(=O)/C=C/c1ccc(C(=O)Nc2ccc(F)cc2)cc1",
    "system.under.test": "SF-295 CNS",
    "class.label": "t"
  },
  {
    "molecule": "COc1ccccc1NC(=O)c1ccc(/C=C/C(=O)c2nccn2C)cc1",
    "system.under.test": "SF-295 CNS",
    "class.label": "t"
  },
  {
    "molecule": "C=C(c1ccc(C(=O)O)cn1)c1cc2c(cc1C)C(C)(C)CCC2(C)C",
    "system.under.test": "SF-295 CNS",
    "class.label": "f"
  },
  {
    "molecule": "CCOC(=O)c1c(NC(=O)c2ccc(C(C)(C)C)cc2)sc2cc(O)ccc12",
    "system.under.test": "SF-295 CNS",
    "class.label": "f"
  },
  {
    "molecule": "C=NNc1ccccc1",
    "system.under.test": "SF-295 CNS",
    "class.label": "f"
  },
  {
    "molecule": "COc1cc(C2C3=C(COC3=O)N(CCO)c3cc4c(cc32)OCCO4)cc(OC)c1OC (stereo not given)",
    "system.under.test": "SF-295 CNS",
    "class.label": "t"
  },
  {
    "molecule": "COc1ccc(-c2cc(-c3cc(OC)c(OC)c(OC)c3)c(C#N)c(=O)n2CCCCCC(=O)NO)cc1",
    "system.under.test": "SF-295 CNS",
    "class.label": "f"
  }
]
